List of % inhibition of asexual blood stage proliferation values.
tested on: Plasmodium falciparum NF54 asexual blood stage; assay: % inhibition of asexual blood stage proliferation (pLDH); higher = more inhibition; details: 2 µM; 72 h
Please respond with the number in % and leave the unit unwritten.

O=C(O)C(Cc1c[nH]c2ccccc12)N1C(=O)c2ccccc2C1=O (stereo unspecified)	33.4
CCC[C@@H]1C[C@@H](C(=O)N[C@@H]([C@H]2O[C@H](SC)[C@H](O)[C@@H](O)[C@H]2O)[C@H](C)Cl)N(C)C1	72.9
O=C(Nc1nnc(-c2ccc(Cl)cc2)o1)c1nc2ccccc2s1	73.6

// recorded % inhibition of asexual blood stage proliferation for Fc1ccc(-n2cc(Cn3c(-c4cccc(F)c4)nc4ccccc43)nn2)cc1 : 9.59

// recorded % inhibition of asexual blood stage proliferation for O=C(N[C@H](CCS)C(=O)N[C@H](Cc1ccccc1)C(=O)O)c1cc2ccccc2[nH]1 : 1.01

// recorded % inhibition of asexual blood stage proliferation for Oc1ccc2[nH]c(-c3ccccc3)nc2c1 : 29.1

// recorded % inhibition of asexual blood stage proliferation for CC(C)n1cnc2c(NCc3ccccc3)nc(NCc3ccccc3)nc21 : 45.5

// recorded % inhibition of asexual blood stage proliferation for O=C(NNC(=S)Nc1ccc(Cl)cc1)c1ccncc1 : 3.73

// recorded % inhibition of asexual blood stage proliferation for COc1cc(NS(=O)(=O)c2ccc(C)cc2)c2ncccc2c1 : 45.4

// recorded % inhibition of asexual blood stage proliferation for Nc1nc(Nc2ccc3nc(-c4ccc(F)cc4)cc(N)c3c2)cc(-c2ccccc2)n1 : 83

// recorded % inhibition of asexual blood stage proliferation for OC1O[C@H](CSc2ccc(F)cc2)[C@@H](O)[C@H]1O (stereo partly specified) : 91.2

// recorded % inhibition of asexual blood stage proliferation for COC(=O)Nc1nc2cc(Sc3ccccc3)ccc2[nH]1 : -7.16

// recorded % inhibition of asexual blood stage proliferation for O=C(O)c1ccc(-n2nc(-c3ccccc3O)nc2-c2ccccc2O)cc1 : -5.88

// recorded % inhibition of asexual blood stage proliferation for CC(C)(C)c1ccc(C(=O)NC(=O)N2CCCc3ccccc32)cc1 : -6.14

// recorded % inhibition of asexual blood stage proliferation for O=C(Nc1nnc(-c2ccc(Cl)cc2)o1)c1ccc(F)cc1 : 23.1

// recorded % inhibition of asexual blood stage proliferation for O=C(N[C@H](Cc1cccc2ccccc12)C(=O)NCCc1c[nH]cn1)C1Cc2ccccc2C1 : 23

// recorded % inhibition of asexual blood stage proliferation for CCc1cc(Nc2cc(=O)n(CCN3CCN(C(=O)c4ccccc4)CC3)c(=O)[nH]2)ccc1C : -6.84

// recorded % inhibition of asexual blood stage proliferation for O=S(=O)(Nc1ccccc1)c1ccc(NC(=S)Nc2ccccc2)cc1 : 43.6

// recorded % inhibition of asexual blood stage proliferation for CCNC(=O)Nc1cc2c(-c3ccnc(C)c3)ccc(CNC(=O)OC)c2cn1 : 0.638

// recorded % inhibition of asexual blood stage proliferation for CSc1ccc2c(c1)C(N1CCN(C)CC1)Cc1ccccc1S2 (stereo unspecified) : 26.2

// recorded % inhibition of asexual blood stage proliferation for Cc1[nH]c2ccccc2c1CCNCc1ccc(/C=C/C(=O)NO)cc1 : 62.2
